Biological target: Platelet-derived growth factor receptor (PDGFr) (Rattus norvegicus, UniProt P20786+Q05030)
Assay: Inhibition of Platelet-derived growth factor receptor autophosphorylation in C6 cells
Assay type: functional, cell-based
Property Name: pIC50
Keep in mind that pIC50 stands for -log10 of concentration in molar terms.

Memo: "Cn1c(=O)c(-c2c(Cl)cccc2Cl)cc2cnc(Nc3ccccc3)nc21" , reported pIC50: 7.42

====

Test system: NIH3T3
Test: Inhibition of NIH3T3 proliferation by sulforhodamine B assay
Assay type: functional, cell-based, Mus musculus
Settings: Mus musculus, NIH3T3
Property Name: IC50 (nM)
Please give a number only; it is taken to be in nM.

Memo: "CCN(CC)CCOc1ccc(Nc2ncc3cc(-c4c(Cl)cccc4Cl)c(=O)n(CC)c3n2)cc1" , reported IC50: 410

Memo: "Cn1c(=O)c(-c2c(Cl)cccc2Cl)cc2cnc(Nc3ccncc3)nc21" , reported IC50: 104

====

Molecular target: Fibroblast growth factor receptor 1 (Homo sapiens, UniProt P11362)
Sequence (P11362 whole entry): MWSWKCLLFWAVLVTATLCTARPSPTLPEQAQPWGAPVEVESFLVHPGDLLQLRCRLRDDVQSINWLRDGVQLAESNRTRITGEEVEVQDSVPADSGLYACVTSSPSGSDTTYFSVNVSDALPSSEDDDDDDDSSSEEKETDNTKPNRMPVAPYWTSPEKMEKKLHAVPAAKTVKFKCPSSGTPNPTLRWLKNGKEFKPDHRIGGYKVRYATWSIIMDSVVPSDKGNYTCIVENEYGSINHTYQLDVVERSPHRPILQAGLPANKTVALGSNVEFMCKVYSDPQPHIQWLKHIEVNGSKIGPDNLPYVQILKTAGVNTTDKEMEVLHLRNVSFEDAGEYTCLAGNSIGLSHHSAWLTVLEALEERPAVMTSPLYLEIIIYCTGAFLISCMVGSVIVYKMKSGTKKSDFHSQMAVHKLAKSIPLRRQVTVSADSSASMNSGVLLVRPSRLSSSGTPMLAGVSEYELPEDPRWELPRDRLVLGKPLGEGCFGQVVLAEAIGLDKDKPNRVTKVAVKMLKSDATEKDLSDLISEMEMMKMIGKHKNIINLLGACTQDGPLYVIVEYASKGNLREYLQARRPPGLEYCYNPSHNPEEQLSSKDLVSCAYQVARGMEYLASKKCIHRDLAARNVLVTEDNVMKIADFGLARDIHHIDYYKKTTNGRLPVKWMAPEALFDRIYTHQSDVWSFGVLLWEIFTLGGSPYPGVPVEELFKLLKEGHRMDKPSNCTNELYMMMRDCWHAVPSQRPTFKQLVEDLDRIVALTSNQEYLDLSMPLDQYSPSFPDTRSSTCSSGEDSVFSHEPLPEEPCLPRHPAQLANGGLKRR
Test: Inhibitory concentration evaluated against fibroblast growth factor receptor 1.
pIC50: −log10 of the molar value.
# cutoff 6 applies to pIC50; >= gives Met, < gives Not met

Problem: Confirm if pIC50 reported for the molecule "Cn1c(=O)c(-c2c(Cl)cccc2Cl)cc2c[nH]c(=O)nc21" is 6 or above.
Solution: Not met

Problem: Confirm if pIC50 reported for the molecule "Cn1c(=O)c(-c2c(Cl)cccc2Cl)cc2cnc(NCCO)nc21" is 6 or above.
Solution: Not met

Problem: Confirm if pIC50 reported for the molecule "COc1ccc(Nc2ncc3cc(-c4c(Cl)cccc4Cl)c(=O)n(C)c3n2)cn1" is 6 or above.
Solution: Met

Problem: Confirm if pIC50 reported for the molecule "CN(C)CCCOc1ccc(Nc2ncc3cc(-c4c(Cl)cccc4Cl)c(=O)n(C)c3n2)cc1" is 6 or above.
Solution: Met

Problem: Confirm if pIC50 reported for the molecule "Cc1ncc2cc(-c3c(Cl)cccc3Cl)c(=O)n(C)c2n1" is 6 or above.
Solution: Not met

Problem: Confirm if pIC50 reported for the molecule "CN1CCN(Cc2ccc(Nc3ncc4cc(-c5c(Cl)cccc5Cl)c(=O)n(C)c4n3)cc2)CC1" is 6 or above.
Solution: Met

Problem: Confirm if pIC50 reported for the molecule "Cn1c(=O)c(-c2c(Cl)cccc2Cl)cc2cnc(Nc3cccc(Br)c3)nc21" is 6 or above.
Solution: Not met

Problem: Confirm if pIC50 reported for the molecule "Cn1c(=O)c(-c2c(Cl)cccc2Cl)cc2cnc(Nc3ccc(OCCN)cc3)nc21" is 6 or above.
Solution: Met

====

What pIC50 was measured for each of the following?
Keep in mind that pIC50 stands for -log10 of concentration in molar terms.

Bench note, UniProtKB P00533: "CCn1c(=O)c(-c2c(Cl)cccc2Cl)cc2cnc(Nc3ccncc3)nc21" , pIC50 reads 6.31

Bench note, UniProtKB P00533: "COc1ccc(Nc2ncc3cc(-c4c(Cl)cccc4Cl)c(=O)n(C)c3n2)cc1" , pIC50 reads 6.66

Bench note, UniProtKB P00533: "COc1cccc(Nc2ncc3cc(-c4c(Cl)cccc4Cl)c(=O)n(C)c3n2)c1" , pIC50 reads 7.52

Bench note, UniProtKB P00533: "Cn1c(=O)c(-c2c(Cl)cccc2Cl)cc2cnc(Nc3ccc(CC(=O)O)cc3)nc21" , pIC50 reads 6.66

Bench note, UniProtKB P00533: "COc1cc(Nc2ncc3cc(-c4c(Cl)cccc4Cl)c(=O)n(C)c3n2)cc(OC)c1" , pIC50 reads 6.48

Bench note, UniProtKB P00533: "Cn1c(=O)c(-c2c(Cl)cccc2Cl)cc2cnc(Nc3ccccc3)nc21" , pIC50 reads 6.59

====

Target: Platelet-derived growth factor receptor (Mus musculus, UniProt P05622+P26618)
Assay: Inhibition of PDGF-induced autophosphorylation of PDGF-R in NIH3T3 cells
What IC50 was measured for each of the following?
Please give a number only; it is taken to be in nM.

Memo: "CCN(CC)CCOc1ccc(Nc2ncc3cc(-c4c(Cl)cccc4Cl)c(=O)n(CC)c3n2)cc1" , reported IC50: 1.7

Memo: "CCN(CC)CCOc1cccc(Nc2ncc3cc(-c4c(Cl)cccc4Cl)c(=O)n(C)c3n2)c1" , reported IC50: 1.7

====

Target: Platelet-derived growth factor receptor beta (Mus musculus, UniProt P05622)
Sequence (P05622 whole entry): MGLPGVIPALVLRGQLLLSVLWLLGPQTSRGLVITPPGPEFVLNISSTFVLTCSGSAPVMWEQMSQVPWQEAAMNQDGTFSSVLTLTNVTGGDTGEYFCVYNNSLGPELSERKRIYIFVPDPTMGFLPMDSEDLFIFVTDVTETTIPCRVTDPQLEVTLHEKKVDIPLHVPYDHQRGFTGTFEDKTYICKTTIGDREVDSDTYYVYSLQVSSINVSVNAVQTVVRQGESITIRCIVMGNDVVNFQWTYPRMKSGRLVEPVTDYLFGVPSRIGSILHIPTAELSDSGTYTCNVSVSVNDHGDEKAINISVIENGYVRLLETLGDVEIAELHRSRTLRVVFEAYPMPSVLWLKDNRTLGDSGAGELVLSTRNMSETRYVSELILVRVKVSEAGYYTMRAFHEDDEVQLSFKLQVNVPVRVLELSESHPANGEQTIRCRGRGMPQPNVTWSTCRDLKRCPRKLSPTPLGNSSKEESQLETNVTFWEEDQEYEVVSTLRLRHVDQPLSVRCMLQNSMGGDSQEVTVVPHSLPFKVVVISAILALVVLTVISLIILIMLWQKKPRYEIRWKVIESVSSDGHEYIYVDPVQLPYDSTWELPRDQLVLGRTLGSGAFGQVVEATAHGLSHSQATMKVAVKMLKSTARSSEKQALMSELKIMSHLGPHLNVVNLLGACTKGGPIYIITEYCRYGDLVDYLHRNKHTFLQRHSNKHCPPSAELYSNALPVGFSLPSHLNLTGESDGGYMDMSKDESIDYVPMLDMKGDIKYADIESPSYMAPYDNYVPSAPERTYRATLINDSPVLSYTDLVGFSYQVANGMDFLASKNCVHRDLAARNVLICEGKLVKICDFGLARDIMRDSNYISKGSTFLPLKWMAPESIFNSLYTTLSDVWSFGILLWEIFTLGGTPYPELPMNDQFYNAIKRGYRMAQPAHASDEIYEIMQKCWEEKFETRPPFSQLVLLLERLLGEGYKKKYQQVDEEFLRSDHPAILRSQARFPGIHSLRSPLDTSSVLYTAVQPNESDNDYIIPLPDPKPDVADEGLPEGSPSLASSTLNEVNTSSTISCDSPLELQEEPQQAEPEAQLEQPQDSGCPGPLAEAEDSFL
Test: Inhibitory concentration was evaluated against Platelet-derived growth factor receptor beta (PDGFr) tyrosine kinase
What pIC50 was measured for each of the following?
Keep in mind that pIC50 stands for -log10 of concentration in molar terms.

Memo: "Cn1c(=O)c(-c2c(Cl)cccc2Cl)cc2cnc(NCCO)nc21" , reported pIC50: 5.19

Memo: "CCNc1ncc2cc(-c3c(Cl)cccc3Cl)c(=O)n(C)c2n1" , reported pIC50: 5.40

Memo: "CCOC(=O)c1cccc(Nc2ncc3cc(-c4c(Cl)cccc4Cl)c(=O)n(C)c3n2)c1" , reported pIC50: 5.77

Memo: "Cn1c(=O)c(-c2c(Cl)cccc2Cl)cc2cnc(Nc3ccc(Cl)cc3)nc21" , reported pIC50: 5.59

Memo: "CN(C)CCOc1ccc(Nc2ncc3cc(-c4c(Cl)cccc4Cl)c(=O)n(C)c3n2)cc1" , reported pIC50: 7.02

Memo: "Cn1c(=O)c(-c2c(Cl)cccc2Cl)cc2cnc(Nc3cccc(Br)c3)nc21" , reported pIC50: 5.51

Memo: "CCCCNc1ncc2cc(-c3c(Cl)cccc3Cl)c(=O)n(C)c2n1" , reported pIC50: 4.99

Memo: "CN1CCN(CCCNc2ncc3cc(-c4c(Cl)cccc4Cl)c(=O)n(C)c3n2)CC1" , reported pIC50: 5.55

Memo: "Cn1c(=O)c(-c2c(Cl)cccc2Cl)cc2cnc(Nc3cccc(C(=O)O)c3)nc21" , reported pIC50: 6.89

Memo: "CC(C)Nc1ncc2cc(-c3c(Cl)cccc3Cl)c(=O)n(C)c2n1" , reported pIC50: 5.49

Memo: "CCOC(=O)CCCc1ccc(Nc2ncc3cc(-c4c(Cl)cccc4Cl)c(=O)n(C)c3n2)cc1" , reported pIC50: 5.38

Memo: "COc1ccc(Nc2ncc3cc(-c4c(Cl)cccc4Cl)c(=O)n(C)c3n2)cn1" , reported pIC50: 6.40

Memo: "Cn1c(=O)c(-c2c(Cl)cccc2Cl)cc2cnc(NCc3ccccc3)nc21" , reported pIC50: 4.62

Memo: "CC[N+](C)(CC)CCOc1ccc(Nc2ncc3cc(-c4c(Cl)cccc4Cl)c(=O)n(C)c3n2)cc1" , reported pIC50: 7.09

Memo: "CCN(CC)CCOc1ccc(Nc2ncc3cc(-c4c(Cl)cccc4Cl)c(=O)n(CC)c3n2)cc1" , reported pIC50: 6.82

Memo: "Cn1c(=O)c(-c2c(Cl)cccc2Cl)cc2cnc(Nc3ccccc3)nc21" , reported pIC50: 6.40

Memo: "CCOC(=O)c1ccc(Nc2ncc3cc(-c4c(Cl)cccc4Cl)c(=O)n(C)c3n2)cc1" , reported pIC50: 4.67

Memo: "Cn1c(=O)c(-c2c(Cl)cccc2Cl)cc2cnc(NC3CCCCC3)nc21" , reported pIC50: 4.90

Memo: "CN1CCN(CCCCCNc2ncc3cc(-c4c(Cl)cccc4Cl)c(=O)n(C)c3n2)CC1" , reported pIC50: 6.15

Memo: "CN(C)CCCOc1ccc(Nc2ncc3cc(-c4c(Cl)cccc4Cl)c(=O)n(C)c3n2)cc1" , reported pIC50: 6.92

Memo: "CNc1ncc2cc(-c3c(Cl)cccc3Cl)c(=O)n(C)c2n1" , reported pIC50: 5.21

Memo: "CN1CCN(Cc2ccc(Nc3ncc4cc(-c5c(Cl)cccc5Cl)c(=O)n(C)c4n3)cc2)CC1" , reported pIC50: 7.00

====

What pIC50 was measured for each of the following?
Keep in mind that pIC50 stands for -log10 of concentration in molar terms.

Bench note, Proto-oncogene tyrosine-protein kinase Src (Gallus gallus): "CCN(CC)CCOc1ccc(Nc2ncc3cc(-c4c(Cl)cccc4Cl)c(=O)n(CC)c3n2)cc1" , pIC50 reads 7.77

Bench note, Proto-oncogene tyrosine-protein kinase Src (Gallus gallus): "CN1CCN(Cc2ccc(Nc3ncc4cc(-c5c(Cl)cccc5Cl)c(=O)n(C)c4n3)cc2)CC1" , pIC50 reads 8.10

Bench note, Proto-oncogene tyrosine-protein kinase Src (Gallus gallus): "Cn1c(=O)c(-c2c(Cl)cccc2Cl)cc2cnc(NCCc3ccccn3)nc21" , pIC50 reads 5.80

Bench note, Proto-oncogene tyrosine-protein kinase Src (Gallus gallus): "Cn1c(=O)c(-c2c(Cl)cccc2Cl)cc2cnc(Nc3ccc(OCCN4CCCCC4)cc3)nc21" , pIC50 reads 8.10

Bench note, Proto-oncogene tyrosine-protein kinase Src (Gallus gallus): "Cn1c(=O)c(-c2c(Cl)cccc2Cl)cc2cnc(Nc3ccccc3)nc21" , pIC50 reads 7.70

Bench note, Proto-oncogene tyrosine-protein kinase Src (Gallus gallus): "CN1CCN(CCCNc2ncc3cc(-c4c(Cl)cccc4Cl)c(=O)n(C)c3n2)CC1" , pIC50 reads 6.82

Entry source: ChEMBL document CHEMBL1131066
